# testTarget: High affinity nerve growth factor receptor (Homo sapiens, UniProt P04629)
# Sequence (P04629 whole entry): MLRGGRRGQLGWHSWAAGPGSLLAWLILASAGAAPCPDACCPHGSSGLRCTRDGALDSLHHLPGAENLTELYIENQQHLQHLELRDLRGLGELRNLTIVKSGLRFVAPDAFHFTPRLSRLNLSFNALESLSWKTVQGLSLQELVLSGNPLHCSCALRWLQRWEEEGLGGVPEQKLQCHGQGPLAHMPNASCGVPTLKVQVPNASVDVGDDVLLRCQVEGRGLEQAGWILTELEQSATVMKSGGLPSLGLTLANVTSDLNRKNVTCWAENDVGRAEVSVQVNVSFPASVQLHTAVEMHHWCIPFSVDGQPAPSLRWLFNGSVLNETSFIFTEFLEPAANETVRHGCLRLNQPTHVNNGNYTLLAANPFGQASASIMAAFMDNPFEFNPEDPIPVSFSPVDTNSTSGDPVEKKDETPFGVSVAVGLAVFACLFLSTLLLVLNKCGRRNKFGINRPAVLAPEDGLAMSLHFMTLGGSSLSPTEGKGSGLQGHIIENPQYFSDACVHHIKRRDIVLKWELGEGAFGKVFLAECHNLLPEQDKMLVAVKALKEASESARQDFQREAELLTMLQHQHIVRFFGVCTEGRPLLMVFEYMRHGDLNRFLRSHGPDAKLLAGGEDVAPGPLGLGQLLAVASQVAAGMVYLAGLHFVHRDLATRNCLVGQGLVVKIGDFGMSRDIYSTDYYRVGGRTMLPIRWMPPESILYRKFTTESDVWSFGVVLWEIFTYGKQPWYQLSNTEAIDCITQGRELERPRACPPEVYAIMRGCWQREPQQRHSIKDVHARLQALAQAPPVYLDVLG
measuredEndpoint: Kd

In [3]: df
Out[3]:
                                givensmiles     val
0  CC(C)CN(C(=O)c1cccnc1)c1c2ccccc2c(=O)n2c1[nH]c1ccccc12  ≥ 5 µM

----------
# testTarget: Ephrin type-A receptor 2 (Homo sapiens)
# Sequence (P29317 whole entry, the tested form may be a part): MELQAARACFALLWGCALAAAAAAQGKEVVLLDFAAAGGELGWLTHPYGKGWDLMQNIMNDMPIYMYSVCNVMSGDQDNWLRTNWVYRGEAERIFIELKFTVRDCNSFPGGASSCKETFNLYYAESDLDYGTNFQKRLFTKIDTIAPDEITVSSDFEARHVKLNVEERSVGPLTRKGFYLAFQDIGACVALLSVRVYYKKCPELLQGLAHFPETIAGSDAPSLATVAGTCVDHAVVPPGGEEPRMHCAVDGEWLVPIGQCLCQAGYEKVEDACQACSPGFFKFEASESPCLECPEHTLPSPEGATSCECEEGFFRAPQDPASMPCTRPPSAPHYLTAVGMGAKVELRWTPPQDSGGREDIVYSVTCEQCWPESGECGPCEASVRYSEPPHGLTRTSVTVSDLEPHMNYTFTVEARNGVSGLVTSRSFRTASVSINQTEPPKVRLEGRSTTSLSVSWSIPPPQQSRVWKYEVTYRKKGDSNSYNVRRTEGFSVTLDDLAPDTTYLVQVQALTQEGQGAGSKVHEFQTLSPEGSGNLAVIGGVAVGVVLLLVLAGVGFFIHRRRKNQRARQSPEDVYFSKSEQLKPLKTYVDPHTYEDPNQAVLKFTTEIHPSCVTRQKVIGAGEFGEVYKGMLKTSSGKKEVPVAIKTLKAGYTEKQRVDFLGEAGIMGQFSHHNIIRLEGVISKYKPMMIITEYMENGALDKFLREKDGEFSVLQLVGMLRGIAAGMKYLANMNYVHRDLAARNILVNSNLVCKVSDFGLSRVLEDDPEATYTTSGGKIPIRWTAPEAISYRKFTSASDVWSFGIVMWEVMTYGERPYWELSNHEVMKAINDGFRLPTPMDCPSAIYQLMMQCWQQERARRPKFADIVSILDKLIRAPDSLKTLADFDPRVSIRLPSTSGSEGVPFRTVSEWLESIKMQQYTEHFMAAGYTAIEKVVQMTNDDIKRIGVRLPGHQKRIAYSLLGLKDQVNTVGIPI
# assayProtocol: Binding affinity to human EPHA2 (T593 to V891 residues) expressed in bacterial expression system by KINOMEscan assay
measuredEndpoint: Kd

>>> print(df.to_string())
                                givensmiles     val
0  CC(C)CN(C(=O)c1cccnc1)c1c2ccccc2c(=O)n2c1[nH]c1ccccc12  ≥ 5 µM
